Reported IC50 is given for each of the following substances.
targetUnderTest: SARS-CoV-2 Spike: ACE2 interaction (UniProt P0DTC2+Q9BYF1)
Sequence (Q9BYF1 18-740, one chain of several): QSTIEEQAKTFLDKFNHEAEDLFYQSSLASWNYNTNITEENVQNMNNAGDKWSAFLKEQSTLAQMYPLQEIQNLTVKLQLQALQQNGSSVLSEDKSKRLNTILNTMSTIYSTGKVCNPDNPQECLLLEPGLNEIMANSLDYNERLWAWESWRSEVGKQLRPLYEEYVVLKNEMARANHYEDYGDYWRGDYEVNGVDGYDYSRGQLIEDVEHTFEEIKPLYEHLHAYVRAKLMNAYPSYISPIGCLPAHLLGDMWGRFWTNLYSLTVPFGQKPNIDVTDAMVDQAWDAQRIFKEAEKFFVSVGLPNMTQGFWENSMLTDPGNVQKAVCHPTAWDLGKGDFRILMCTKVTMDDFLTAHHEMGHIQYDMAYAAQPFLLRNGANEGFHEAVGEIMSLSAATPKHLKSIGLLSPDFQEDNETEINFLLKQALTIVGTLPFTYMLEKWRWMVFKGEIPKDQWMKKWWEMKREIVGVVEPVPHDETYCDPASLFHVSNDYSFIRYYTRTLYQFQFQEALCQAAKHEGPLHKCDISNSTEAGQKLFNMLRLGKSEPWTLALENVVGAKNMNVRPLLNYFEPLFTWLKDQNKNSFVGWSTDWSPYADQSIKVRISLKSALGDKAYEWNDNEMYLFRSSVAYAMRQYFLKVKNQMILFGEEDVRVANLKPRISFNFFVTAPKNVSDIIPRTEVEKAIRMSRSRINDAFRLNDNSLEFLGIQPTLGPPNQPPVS
experimentNotes: biochemical
Assay type: binding
measurementSetup: read-out: SARS-CoV-2 Spike:ACE2 IC50
reportedEndpoint: IC50

- substance: "Ac-T*EYQAGSTK*Ava-LWRALWRLWRSLWRLLWK-NH2 [Seq16]"
  targetUnderTest: "SARS-CoV-2 Spike: ACE2 interaction (UniProt P0DTC2+Q9BYF1)"
  reportedValue: "> 1 µM"
- substance: "Ac-V*EGENCYF*Ava-LWRALWRLWRSLWRLLWK-NH2 [Seq18]"
  targetUnderTest: "SARS-CoV-2 Spike: ACE2 interaction (UniProt P0DTC2+Q9BYF1)"
  reportedValue: "> 10 µM"
- substance: "Ac-G*NYNYLYRLFK*-Ava-LWRALWRLWRSLWRLLWK-NH2 [Seq15]"
  targetUnderTest: "SARS-CoV-2 Spike: ACE2 interaction (UniProt P0DTC2+Q9BYF1)"
  reportedValue: "> 1 µM"
- substance: "Ac-K*VGGNYNYK*-Ava-LWRALWRLWRSLWRLLWK-NH2 [Seq13]"
  targetUnderTest: "SARS-CoV-2 Spike: ACE2 interaction (UniProt P0DTC2+Q9BYF1)"
  reportedValue: "> 10 µM"
- substance: "Ac-G*NYNYLYRL*-Ava-LWRALWRLWRSLWRLLWK-NH2 [Seq14]"
  targetUnderTest: "SARS-CoV-2 Spike: ACE2 interaction (UniProt P0DTC2+Q9BYF1)"
  reportedValue: "> 10 µM"
